Values compiled from PubChem BioAssay.

Test system: Inhibin beta A chain (activin A)
Test: INHBA (activin A) binders on microarrays, primary screen, biochemical, small-molecule microarray, 635 nm fluorescence scan (AID 1107);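 also: mouse activin A protein probed at 4.33 µg/mL on printed slides; score merges bound-protein fluorescence near 667 nm with spot signal-to-noise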
Details: small-molecule microarray binding, higher = more signal
Would you mind telling me the reported composite z-score of each entry?
In your answer, state the number alone without any accompanying words.

Consider the molecule COC(=O)[C@@]1(Cc2ccccc2)[C@H]2c3cc(C(=O)N4CCCC4)n(CCN4CNCC4=O)c3C[C@H]2CN1C(=O)c1ccccc1 and give its recorded composite z-score.
1.05

Consider the molecule CC1CC/C=C\[C@H]2OC34C=CCN(Cn5nnc6ccccc65)C(=O)[C@H]3N(C(C)CO)C(=O)[C@@H]4C2C(=O)O1 (some centres undefined) and give its recorded composite z-score.
0.494

Consider the molecule C=CC[C@@]12N=C(c3ccc(OCCCO)cc3)O[C@@H]1c1ccccc1CN(Cc1ccccc1)C2=O and give its recorded composite z-score.
1.01

Consider the molecule COc1ccc(CCNC(=O)[C@@]2(c3ccc([N+](=O)[O-])cc3)CC(=O)N(C(C)C)[C@@H]2c2ccc(CO)cc2)cc1 and give its recorded composite z-score.
-0.445

Consider the molecule COc1ccc([Si](C)(C)[C@@H]2[C@@H](CC(=O)N(CCO)Cc3ccccc3)O[C@]3(C(=O)N(Cc4cccc(N5CCC5=O)c4)c4ccccc43)[C@H]2C)cc1 and give its recorded composite z-score.
0.552

Consider the molecule CC(C)(C)OC(=O)CC[C@]1(C(=O)NCCN2CCOCC2)N=C(c2ccc(OCCCO)cc2)O[C@H]1c1ccccc1CN=[N+]=[N-] and give its recorded composite z-score.
0.82

Consider the molecule CCCCO[C@H]1C[C@H]2C(Br)=C[C@@]1(CO)C(=O)[C@]21CO1 and give its recorded composite z-score.
0.363

Consider the molecule O=C(N1CCCCC1)[C@@]1(CCS(=O)(=O)c2ccccc2)N=C(c2ccc(OCCCO)cc2)O[C@H]1c1ccccc1 and give its recorded composite z-score.
0.356

Consider the molecule CCCCCCc1nc(C2CC2)c(C)c2c1[Si](C(C)C)(C(C)C)OC2 and give its recorded composite z-score.
1.54

###

Would you mind telling me the reported composite z-score of each entry?
Molecular target: Focal adhesion kinase 1 (Homo sapiens) (UniProt Q05397)
Sequence (Q05397 whole entry, looked up): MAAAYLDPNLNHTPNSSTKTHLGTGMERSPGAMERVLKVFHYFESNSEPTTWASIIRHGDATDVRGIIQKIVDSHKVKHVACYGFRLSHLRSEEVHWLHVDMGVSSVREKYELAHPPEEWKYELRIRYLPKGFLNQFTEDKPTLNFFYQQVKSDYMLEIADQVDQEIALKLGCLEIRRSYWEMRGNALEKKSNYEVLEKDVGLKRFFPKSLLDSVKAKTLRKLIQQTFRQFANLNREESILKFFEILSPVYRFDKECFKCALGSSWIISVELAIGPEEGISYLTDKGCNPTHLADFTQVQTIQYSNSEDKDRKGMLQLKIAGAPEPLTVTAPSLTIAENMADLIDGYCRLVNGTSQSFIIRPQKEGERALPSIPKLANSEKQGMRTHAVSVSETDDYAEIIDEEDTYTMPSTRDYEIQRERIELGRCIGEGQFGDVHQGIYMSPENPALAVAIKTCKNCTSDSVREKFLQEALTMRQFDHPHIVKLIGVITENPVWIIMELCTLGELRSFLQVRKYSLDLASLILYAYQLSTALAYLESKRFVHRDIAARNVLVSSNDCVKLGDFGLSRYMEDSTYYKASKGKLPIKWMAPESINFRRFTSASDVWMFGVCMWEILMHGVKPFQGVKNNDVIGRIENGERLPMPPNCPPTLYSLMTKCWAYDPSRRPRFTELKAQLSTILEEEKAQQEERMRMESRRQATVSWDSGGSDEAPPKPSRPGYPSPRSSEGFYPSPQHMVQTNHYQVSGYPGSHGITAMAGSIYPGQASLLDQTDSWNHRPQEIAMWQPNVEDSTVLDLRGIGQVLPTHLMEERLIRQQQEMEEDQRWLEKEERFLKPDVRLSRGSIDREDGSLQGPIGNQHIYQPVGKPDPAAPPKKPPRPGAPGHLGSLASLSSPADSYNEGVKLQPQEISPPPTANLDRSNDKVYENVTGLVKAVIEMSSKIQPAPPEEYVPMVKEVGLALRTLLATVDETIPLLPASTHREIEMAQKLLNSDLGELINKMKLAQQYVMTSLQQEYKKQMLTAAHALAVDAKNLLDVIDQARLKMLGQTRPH
Test: small-molecule microarray binders of FAK, primary screen, biochemical, 635/667 nm fluorescence, BSA, DTT (AID 1130);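 also: composite of spot emission at 667 nm and signal to noise over triplicate slides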
Details: PTK2 binding, 635 nm fluorescence, higher = more signal
In your answer, state the number alone without any accompanying words.

Consider the molecule Cc1ccccc1C(O)C1C=CC2C(=O)N(c3ccccc3)C(=O)C2N1Nc1ccc(C#N)cc1 (centres undefined) and give its recorded composite z-score.
0.842

Consider the molecule CN1CCC(CCCO)=CC1C1CC1 (centres undefined) and give its recorded composite z-score.
-0.233

Consider the molecule COCCOC(=O)N1C(=O)[C@@]2(c3cc(C#CC4=CCCCC4)ccc31)[C@H](C(=O)NC[C@H](O)c1ccccc1)[C@H]1C(=O)O[C@H](c3ccccc3)[C@H](c3ccccc3)N1[C@@H]2c1ccccc1OCCO and give its recorded composite z-score.
0.985

Consider the molecule O=C1OCCC/C=C\[C@H]2OC34C=CCN(CCN5CCOCC5)C(=O)[C@H]3N(CCCCCO)C(=O)[C@@H]4C12 (some centres undefined) and give its recorded composite z-score.
-1.29

###

Assay: basal MM1S mitochondrial membrane potential changes, profiling panel, cell-based, JC-1 fluorescence, 24 h, 100 nL compound (AID 1170); also: test concentration not given here
Conditions: higher = more signal
Property: z-score
In your answer, state the number alone without any accompanying words.

Consider the compound CO[C@H]1COC(=O)CC=C[C@H](C)[C@@H](OC)COC(=O)[C@H](Cc2ccccc2)NC(=O)CC=C[C@@H]1C and give its recorded z-score.
1.14

Consider the compound C=CCC(OC(C)=O)[C@@H]1[C@@H](N(Cc2ccc(-c3ccccc3)cc2)C(=O)c2ccc(-c3ccccc3)cc2)c2cc(OCCCO)ccc2N1C(=O)Cc1ccc(OC)cc1 (some centres not stated) and give its recorded z-score.
-0.142

Consider the compound O=[N+]([O-])c1ccc(C[n+]2ccc3ccc(O)cc3c2)o1 and give its recorded z-score.
0.648

Consider the compound CO[C@H]1O[C@H](CO)[C@@H](OC(=O)Nc2ccccc2)[C@H](OC(=O)Nc2ccc3c(c2)OCO3)[C@@H]1OC(=O)Nc1ccc2c(c1)OCO2 and give its recorded z-score.
0.327

Consider the compound CC(C)C[C@@H]1NC(=O)[C@H](CC(C)C)NC(=O)[C@@]23C(=O)N[C@@H](Cc4ccccc4)C2[C@H](C)[C@@]2(C)O[C@H]2C3/C=C/CC/C=C/CNC1=O (some centres not stated) and give its recorded z-score.
0.19

Consider the compound CC1CC/C=C\[C@H]2OC34C=CCN(Cn5nnc6ccccc65)C(=O)[C@H]3N(C(C)CO)C(=O)[C@@H]4C2C(=O)O1 (some centres not stated) and give its recorded z-score.
-0.731

Consider the compound C[C@H]1COC(=O)[C@@H]2CCCN2C(=O)[C@@H](C)COC(=O)[C@@H]2CCCN2C1=O and give its recorded z-score.
0.0551

###

Experiment: basal RPMI8226 viability, no added stimulus, profiling panel, cell-based, calcein-AM fluorescence, 48 h, PK04 Diversity Set (AID 1166);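 also: cells grown under basal conditions without added stimulus; test concentration not given here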
Settings: RPMI8226 myeloma viability, higher = more signal
Hi! Just check whether z-score is below -0.3. Below gives 1.0, equal or above gives 0.0.

Below -0.3 on z-score? Entry COC(=O)[C@@]1(Cc2ccc(OC)cc2)[C@H]2c3cc(C(=O)N(C)C)n(CCc4ccc(OC)c(Br)c4)c3C[C@H]2CN1C(=O)c1ccccc1
1.0

Below -0.3 on z-score? Entry C=C(C(=O)CC[C@H](OC(=O)c1ccccc1-c1ccccc1C(=O)O)c1ccc(CO)o1)C(C)C
0.0

Below -0.3 on z-score? Entry O=C1C2C=CC(C(O)c3ccccc3)N(n3cnnc3)C2C(=O)N1Cc1ccccc1 (configuration not stated)
1.0

Below -0.3 on z-score? Entry C=C(COC)/C(=C/C[C@H](OC(C)=O)c1ccc(OCCO)cc1)c1cnc2ccccc2c1
0.0

Below -0.3 on z-score? Entry COCCCNC(=O)[C@@H]1c2ccccc2C(=O)N(CC23CC4CC(CC(C4)C2)C3)[C@H]1c1ccc(CO)cc1
1.0

Below -0.3 on z-score? Entry CO[C@H]1COC(=O)CC=C[C@H](C)[C@@H](OC)COC(=O)CC=C[C@@H]1C
0.0

Below -0.3 on z-score? Entry CCCN1C(=O)[C@@]2(CCS(=O)(=O)c3ccccc3)N=C(c3ccc(OCCCO)cc3)O[C@H]2c2ccccc21
1.0

Below -0.3 on z-score? Entry N#Cc1ccc(NN2C(C(O)c3ccc(I)cc3)C=CC3C(=O)N(c4ccccc4)C(=O)C32)cc1 (configuration not stated)
0.0

Below -0.3 on z-score? Entry CCN1C(C)=C(C(=O)OC)[C@@H](c2ccccc2)N2C(=O)[C@@]3(C(=O)OC)O[C@@]12[C@@H]1C(=O)N(c2ccccc2)C(=O)[C@@H]13
1.0

Below -0.3 on z-score? Entry COC(=O)C(CC#Cc1ccc2c(c1)[C@]1(C(=O)N2)[C@H](C(=O)N2CCCCCCC2)[C@H]2C(=O)O[C@H](c3ccccc3)[C@H](c3ccccc3)N2[C@@H]1c1ccc(O)cc1)C(=O)OC
0.0

Below -0.3 on z-score? Entry O=C1OCC=C[C@H]2OC34C=CCN(Cc5ccccc5)C(=O)[C@H]3N(CCCCCO)C(=O)[C@@H]4[C@@H]12 (some centres not stated)
0.0

Below -0.3 on z-score? Entry COC(=O)c1ccc(C#CC(NP(=O)(c2ccccc2)c2ccccc2)c2ccccc2)cc1 (configuration not stated)
1.0

Below -0.3 on z-score? Entry COCCOC(=O)N1C(=O)[C@@]2(c3cc(C#CCCO)ccc31)[C@H](c1ccc(OCCO)cc1)N1[C@H](c3ccccc3)[C@H](c3ccccc3)OC(=O)[C@H]1[C@@H]2C(=O)NC[C@H](O)c1ccccc1
1.0

Below -0.3 on z-score? Entry Cc1ccc(S[C@]2(C(=O)NCCN3CCOCC3)CC(=O)N(C3Cc4ccccc4C3)[C@@H]2c2ccc(CO)cc2I)cc1
1.0

Below -0.3 on z-score? Entry CCOC(=O)C[C@H]1[C@H](OC(=O)c2ccccc2-c2ccccc2)[C@@H](NC(=O)C2CCCCC2)c2cc(OCCCO)ccc2N1C(=O)c1ccccc1
1.0

Below -0.3 on z-score? Entry CO[C@@H]1COC(=O)CC=C[C@@H](C)[C@H](OC)COC(=O)CC=C[C@H]1C
0.0

Below -0.3 on z-score? Entry Cc1ccc(N2C(=O)c3ccccc3[C@@H](C(=O)NCC(F)(F)F)[C@@H]2c2ccc(CO)cc2)nc1
0.0

Below -0.3 on z-score? Entry COC(=O)C1=C(C)N(Cc2ccccc2)c2c(C(=O)OC)c(C(=O)OC)c(C(=O)OC)c(=O)n2[C@@H]1c1ccccc1
0.0

Below -0.3 on z-score? Entry CCOC(=O)C[C@H]1[C@H](OC(=O)c2cc3ccccc3oc2=O)[C@@H](NC(=O)C2CCCCC2)c2cc(OCCCO)ccc2N1C(=O)c1ccc2ccccc2n1
0.0

Below -0.3 on z-score? Entry C=CC[C@@]12N=C(c3ccc(OCCCO)cc3)O[C@@H]1c1ccccc1CN(Cc1ccccc1)C2=O
1.0

Below -0.3 on z-score? Entry C=C(CCCC)C(=O)CC[C@@H](OC(=O)c1cccnc1)c1cccc(OCCO)c1
1.0

Below -0.3 on z-score? Entry C[N+](C)(C)CCCC[C@@H]1NC(=O)[C@H]2C[C@@H](C(=O)NCc3ccc(F)cc3)[C@@H](c3cccc(OCCO)c3)N2C1=O
0.0

Below -0.3 on z-score? Entry C=C(COC)/C(=C/C[C@@H](OC(C)=O)c1cccc(OCCO)c1)c1cc(C(=O)OC)ccc1OC
0.0

Below -0.3 on z-score? Entry CCOC(=O)[C@H]1C/C=C/C[C@H](C(=O)OCC)C(=O)O[C@H]2[C@@H](OC)O[C@H](CO)[C@@H](OC(=O)Nc3ccc(Br)cc3)[C@@H]2OC1=O
1.0

Below -0.3 on z-score? Entry C[C@@H]1CC[C@H]2C(=O)N3[C@@H](CC[C@@H](C)[C@@H]3c3cccc(N4CCOCC4)c3)C(=O)N2[C@H]1c1cccc(N2CCOCC2)c1
0.0

Below -0.3 on z-score? Entry COc1ccc(-c2cc3c(c(-c4ccccc4)n2)[Si](C(C)C)(C(C)C)O[C@H]3c2ccccc2)cn1
1.0

Below -0.3 on z-score? Entry C=CCN1C(=O)[C@]2(O[C@H](CCn3cc(CCO)nn3)[C@@H]([Si](C)(C)c3ccc(OC)cc3)[C@@H]2C)c2cc(NC(=O)c3ccc(OC)cc3)ccc21
1.0
